B1: RIPK4 (parent)
chain: VIDLFDEQGLSALHLAAQGRHAQT

# Variants of: B1
# assay-details: protein stability index of a GFP-peptide fusion (GPS, HEK-293T) (PSI 1-6); higher = more stable;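 further: lentivirally expressed fusions sorted by FACS into six bins by GFP to DsRed ratio, PSI derived from sequencing read proportions per bin multiplied by bin number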
# condition-context: c terminus: a fixed tail appended
Short version: protein stability index at least 3 is Criterion met, less is Criterion not met.

[[record]]
var = "A17R"
category = "Criterion met"

[[record]]
var = "G9M"
category = "Criterion not met"

[[record]]
var = "A12N"
category = "Criterion met"

[[record]]
var = "G9F"
category = "Criterion not met"

[[record]]
var = "Q23F"
category = "Criterion not met"

[[record]]
var = "S11V"
category = "Criterion not met"

[[record]]
var = "T24L"
category = "Criterion not met"

[[record]]
var = "L13C"
category = "Criterion not met"

[[record]]
var = "Q8M"
category = "Criterion not met"

[[record]]
var = "A16M"
category = "Criterion not met"

[[record]]
var = "Q23H"
category = "Criterion not met"

[[record]]
var = "L13G"
category = "Criterion met"

[[record]]
var = "I2G"
category = "Criterion met"

[[record]]
var = "L4P"
category = "Criterion met"

[[record]]
var = "V1G"
category = "Criterion met"

[[record]]
var = "L13P"
category = "Criterion met"

[[record]]
var = "I2F"
category = "Criterion not met"

[[record]]
var = "T24Y"
category = "Criterion not met"

[[record]]
var = "A17W"
category = "Criterion not met"

[[record]]
var = "H14I"
category = "Criterion not met"

[[record]]
var = "D6W"
category = "Criterion not met"

[[record]]
var = "L10S"
category = "Criterion met"

[[record]]
var = "T24G"
category = "Criterion met"

[[record]]
var = "F5S"
category = "Criterion met"

[[record]]
var = "Q8I"
category = "Criterion not met"

[[record]]
var = "S11E"
category = "Criterion met"

[[record]]
var = "R20K"
category = "Criterion met"

[[record]]
var = "A22I"
category = "Criterion not met"

[[record]]
var = "E7A"
category = "Criterion not met"

[[record]]
var = "L13A"
category = "Criterion met"

[[record]]
var = "L4W"
category = "Criterion not met"

[[record]]
var = "L15T"
category = "Criterion met"

[[record]]
var = "G19D"
category = "Criterion met"

[[record]]
var = "L10Q"
category = "Criterion met"

[[record]]
var = "E7T"
category = "Criterion not met"

[[record]]
var = "T24H"
category = "Criterion not met"

[[record]]
var = "L15S"
category = "Criterion met"

[[record]]
var = "D6Y"
category = "Criterion not met"

[[record]]
var = "D3K"
category = "Criterion not met"

[[record]]
var = "F5D"
category = "Criterion met"

[[record]]
var = "T24F"
category = "Criterion not met"

[[record]]
var = "Q18M"
category = "Criterion not met"

[[record]]
var = "F5E"
category = "Criterion met"

[[record]]
var = "A17N"
category = "Criterion met"

[[record]]
var = "A16W"
category = "Criterion not met"

[[record]]
var = "L10P"
category = "Criterion met"

[[record]]
var = "F5Q"
category = "Criterion met"

[[record]]
var = "F5M"
category = "Criterion not met"

[[record]]
var = "L13T"
category = "Criterion met"

[[record]]
var = "G9V"
category = "Criterion not met"

[[record]]
var = "F5P"
category = "Criterion met"

[[record]]
var = "A12K"
category = "Criterion met"

[[record]]
var = "H14V"
category = "Criterion not met"

[[record]]
var = "H14E"
category = "Criterion met"

[[record]]
var = "I2K"
category = "Criterion met"

[[record]]
var = "V1K"
category = "Criterion met"

[[record]]
var = "T24S"
category = "Criterion not met"

[[record]]
var = "A16D"
category = "Criterion met"

[[record]]
var = "H21A"
category = "Criterion not met"

[[record]]
var = "A12G"
category = "Criterion not met"

[[record]]
var = "T24R"
category = "Criterion met"

[[record]]
var = "A12T"
category = "Criterion not met"

[[record]]
var = "L4T"
category = "Criterion met"

[[record]]
var = "A16Y"
category = "Criterion not met"

[[record]]
var = "A22E"
category = "Criterion met"

[[record]]
var = "F5K"
category = "Criterion met"

[[record]]
var = "S11Y"
category = "Criterion not met"

[[record]]
var = "Q18C"
category = "Criterion not met"

[[record]]
var = "F5V"
category = "Criterion met"

[[record]]
var = "L4G"
category = "Criterion met"

[[record]]
var = "A16P"
category = "Criterion met"

[[record]]
var = "L15I"
category = "Criterion not met"

[[record]]
var = "Q18P"
category = "Criterion not met"

[[record]]
var = "G19P"
category = "Criterion not met"

[[record]]
var = "R20F"
category = "Criterion not met"

[[record]]
var = "G9K"
category = "Criterion not met"

[[record]]
var = "R20A"
category = "Criterion not met"

[[record]]
var = "H21L"
category = "Criterion not met"

[[record]]
var = "D6A"
category = "Criterion not met"

[[record]]
var = "G19L"
category = "Criterion not met"

[[record]]
var = "D3Q"
category = "Criterion not met"

[[record]]
var = "Q18S"
category = "Criterion not met"

